UniProt P14618 data, read-out AC50
Sequence (P14618 whole entry): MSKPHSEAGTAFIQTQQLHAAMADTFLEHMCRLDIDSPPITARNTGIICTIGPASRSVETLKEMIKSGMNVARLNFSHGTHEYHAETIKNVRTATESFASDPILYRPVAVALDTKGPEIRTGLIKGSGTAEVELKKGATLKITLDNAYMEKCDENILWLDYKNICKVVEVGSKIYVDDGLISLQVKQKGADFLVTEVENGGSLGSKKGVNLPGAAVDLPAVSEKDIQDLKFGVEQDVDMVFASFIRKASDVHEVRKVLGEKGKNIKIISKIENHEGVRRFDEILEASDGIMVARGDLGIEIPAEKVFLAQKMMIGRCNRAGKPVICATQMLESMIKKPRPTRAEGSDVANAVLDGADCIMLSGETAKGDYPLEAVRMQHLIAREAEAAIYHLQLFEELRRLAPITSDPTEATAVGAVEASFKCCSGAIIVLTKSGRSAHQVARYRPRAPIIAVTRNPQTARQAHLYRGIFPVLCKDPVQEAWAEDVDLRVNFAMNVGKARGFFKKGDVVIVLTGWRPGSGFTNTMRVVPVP
Hi! Could you send only the number? It should be in µM, unit omitted.

Below, 2 compounds whose answers are already recorded.
compound | AC50 [µM]
COc1cccc(Cn2ncc3c4sc([S+](C)[O-])cc4n(C)c3c2=O)c1 (stereo unspecified) | 0.073
CC(O)c1cc2c(s1)c1cnn(Cc3ccccc3F)c(=O)c1n2C (stereo unspecified) | 0.136

Item: Cn1c2cc([S+](C)[O-])sc2c2cnn(Cc3cccc(O)c3)c(=O)c21 (stereo unspecified) | System: UniProt P14618 | AC50: 0.13

Reported AC50 (UniProt P14618) for entry Cc1ccc(Cn2ncc3c4sc(C)cc4n(C)c3c2=O)c(F)c1 is 0.108
